For each entry below, report its Bliss excess value.
- Tested on: Ramos-2G6-4C10 (Burkitt's Lymphoma);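 note: after 72 h of two-drug dosing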
- method_notes: Bliss excess, mean over the matrix (fraction); higher = more synergy

CS(=O)(=O)CCNCc1ccc(-c2ccc3ncnc(Nc4ccc(OCc5cccc(F)c5)c(Cl)c4)c3c2)o1 [Lapatinib] + Cn1cnc2c(F)c(Nc3ccc(Br)cc3Cl)c(C(=O)NOCCO)cc21 [Selumetinib] (first compound max 10 µM, 7x7, partner max 10 µM)
0.0139

Missing value: Bliss excess, Ramos-2G6-4C10 (Burkitt's Lymphoma), entry CN(C)CCCOc1ccc(-c2ccc3ncc4c(c3c2)n(C2CCOCC2)c(=O)n4C)cn1 [AZD0156] + O=C(c1cc(Cc2n[nH]c(=O)c3ccccc23)ccc1F)N1CCN(C(=O)C2CC2)CC1 [Olaparib] (first compound max 3 µM, partner max 3 µM) . Fill in?
0.0928

Each recorded value in this set is attributed to the supplement of paper PMC11061612.
